Target: T1, human CX3CR1 (human, UniProt P49238 1-355)
T1 construct: Overexpressed on CHO K1, Ba/F3 or HEK293T cells; also called huCX3CR1; hCX3CR1
T1 sequence: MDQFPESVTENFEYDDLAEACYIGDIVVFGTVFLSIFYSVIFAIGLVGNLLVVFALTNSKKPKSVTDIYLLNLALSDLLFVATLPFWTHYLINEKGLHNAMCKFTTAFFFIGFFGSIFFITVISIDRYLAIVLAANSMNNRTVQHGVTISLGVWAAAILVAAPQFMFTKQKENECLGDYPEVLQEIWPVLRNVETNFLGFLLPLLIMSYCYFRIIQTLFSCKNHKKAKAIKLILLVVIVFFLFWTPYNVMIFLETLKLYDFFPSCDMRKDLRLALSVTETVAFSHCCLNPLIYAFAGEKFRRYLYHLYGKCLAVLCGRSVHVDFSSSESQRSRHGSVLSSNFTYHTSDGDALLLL
Assay: competition flow cytometry vs soluble huCX3CL1-AF647 on CHO K1 huCX3CR1 cells, 30 uM HSA
Quick list: pIC50 per entry.
Keep in mind that pIC50 stands for -log10 of concentration in molar terms.

binder="A041600040 (VHH, Trivalent ISVD construct (two anti-CX3CR1 ISVDs, one anti-albumin ISVD), C-terminal alanine included in the entry; also called 66B02_SO (E1D)-9GS-54A12_SO-9GS-ALB23002-A) DVQLVESGGGSVQPGGSLRLSCAASGSIFSSTAMAWYRQAPGKRRDLVAAINTVGVTKYADSVKGRFTISRDNAKNTVYLQMNSLRPEDTALYYCTSDPRRGWDTRYWGQGTLVTVSSGGGGSGGGSEVQLVESGGGSVQPGGSLRLSCAASGSIFSSTAMAWYRQAPGKQRDLVAVISTVGITKYADSVKGRFTISRDNAKNTVYLQMNSLRPEDTALYYCTSDARRGWDTRYWGQGTLVTVSSGGGGSGGGSEVQLVESGGGVVQPGGSLRLSCAASGFTFRSFGMSWVRQAPGKGPEWVSSISGSGSDTLYADSVKGRFTISRDNSKNTLYLQMNSLRPEDTALYYCTIGGSLSRSSQGTLVTVSSA" reported=9.00

Continue with the binder presented below.
Please report the recorded pIC50 for A041600085 (VHH, also called 307-9GS-ALB23002-9GS-307 (D1E)-A) DVQLVESGGGLVQPGGSLRLSCAASGSIFSSTAMAWYRQAPGKRRDLVAAISTVGVTKYADSVKGRFTISRDNSKNTVYLQMNSLRPEDTAVYYCTSDPRRGWDTRYWGQGTLVTVSSGGGGSGGGSEVQLVESGGGVVQPGGSLRLSCAASGFTFRSFGMSWVRQAPGKGPEWVSSISGSGSDTLYADSVKGRFTISRDNSKNTLYLQMNSLRPEDTALYYCTIGGSLSRSSQGTLVTVSSGGGGSGGGSEVQLVESGGGLVQPGGSLRLSCAASGSIFSSTAMAWYRQAPGKRRDLVAAISTVGVTKYADSVKGRFTISRDNSKNTVYLQMNSLRPEDTAVYYCTSDPRRGWDTRYWGQGTLVTVSSA . 8.11
